Assign (a) Concentration required to lower the MIC of erythromycin from 70 to 1 µg/mL to each entry below.
# Test system: E. coli (ATCC 10798)
# assay.text: Sensitization to erythromycin or novobiocin (outer membrane permeabilization, FIC)
# Type: cell-based, Escherichia coli
# experimental.conditions: Table 9; Escherichia coli (ATCC 10798)
Just the number in µg/mL, nothing appended.

I'd like to know its (a) Concentration required to lower the MIC of erythromycin from 70 to 1 µg/mL. The compound in question is COCCC[C@@H](C)[C@H]1CC[C@H]2[C@@H]3[C@H](OCCCN)C[C@@H]4C[C@H](OCCCN)CC[C@]4(C)[C@H]3C[C@H](OCCCN)[C@]12C 1.0

I'd like to know its (a) Concentration required to lower the MIC of erythromycin from 70 to 1 µg/mL. The compound in question is CC(O)[C@H]1CC[C@H]2[C@@H]3[C@H](OCCCN)C[C@@H]4C[C@H](OCCCN)CC[C@]4(C)[C@H]3C[C@H](OCCCN)[C@]12C (stereo partly shown) 20

I'd like to know its (a) Concentration required to lower the MIC of erythromycin from 70 to 1 µg/mL. The compound in question is C[C@H](CCO)[C@H]1CC[C@H]2[C@@H]3[C@H](OCCCN)C[C@@H]4C[C@H](OCCCN)CC[C@]4(C)[C@H]3C[C@H](OCCCN)[C@]12C 4.0

I'd like to know its (a) Concentration required to lower the MIC of erythromycin from 70 to 1 µg/mL. The compound in question is C[C@]12CC[C@@H](OCCCN)C[C@H]1C[C@@H](OCCCN)[C@@H]1[C@@H]2C[C@H](OCCCN)[C@]2(C)[C@@H](O)CC[C@@H]12 30

----------
# assay.text: Minimum hemolytic concentration (MHC)
# Type: cell-based
# experimental.conditions: Table 10
measured.metric: MHC (µg/mL)
Just the number in µg/mL, nothing appended.

I'd like to know its MHC. The molecule in question is CCCOCCC[C@@H](C)[C@H]1CC[C@H]2[C@@H]3[C@H](OCCCN)C[C@@H]4C[C@H](OCCCN)CC[C@]4(C)[C@H]3C[C@H](OCCCN)[C@]12C 5.9

I'd like to know its MHC. The molecule in question is C[C@H](CCCN(C)Cc1ccccc1)[C@H]1CC[C@H]2[C@@H]3[C@H](OCCN)C[C@@H]4C[C@H](OCCN)CC[C@]4(C)[C@H]3C[C@H](OCCN)[C@]12C 78

----------
MIC, Enterococcus faeculis ATCC 29212, per-entry values.
Just the number in µg/mL, nothing appended.

I'd like to know its MIC. The compound in question is C[C@]12CC[C@@H](OCCCN)C[C@H]1C[C@@H](OCCCN)[C@@H]1[C@@H]2C[C@H](OCCCN)[C@]2(C)[C@@H](O)CC[C@@H]12 [Compound 106] 12

I'd like to know its MIC. The compound in question is CCCOCCC[C@@H](C)[C@H]1CC[C@H]2[C@@H]3[C@H](OCCCN)C[C@@H]4C[C@H](OCCCN)CC[C@]4(C)[C@H]3C[C@H](OCCCN)[C@]12C [Compound 112] 3.1

I'd like to know its MIC. The compound in question is C[C@H](CCCN(C)Cc1ccccc1)[C@H]1CC[C@H]2[C@@H]3[C@H](OCCCNC(=N)N)C[C@@H]4C[C@H](OCCCNC(=N)N)CC[C@]4(C)[C@H]3C[C@H](OCCCNC(=N)N)[C@]12C [Compound 5] 2.2

I'd like to know its MIC. The compound in question is C[C@H](CCCN(C)Cc1ccccc1)[C@H]1CC[C@H]2[C@@H]3[C@H](OCCN)C[C@@H]4C[C@H](OCCN)CC[C@]4(C)[C@H]3C[C@H](OCCN)[C@]12C [Compound 1] 4.9

I'd like to know its MIC. The compound in question is C[C@H](CCCO)[C@H]1CC[C@H]2[C@@H]3[C@H](OCCCN)C[C@@H]4C[C@H](OCCCN)CC[C@]4(C)[C@H]3C[C@H](OCCCN)[C@]12C [Compound 10] 3.3

I'd like to know its MIC. The compound in question is C[C@H](CCCN(C)Cc1ccccc1)[C@H]1CC[C@H]2[C@@H]3[C@H](OCCCN)C[C@@H]4C[C@H](OCCCN)CC[C@]4(C)[C@H]3C[C@H](OCCCN)[C@]12C [Compound 2] 3.4
